Biological target: alkaline phosphatase (Bos taurus, UniProt P19111)
Sequence (P19111 20-506 limits assumed): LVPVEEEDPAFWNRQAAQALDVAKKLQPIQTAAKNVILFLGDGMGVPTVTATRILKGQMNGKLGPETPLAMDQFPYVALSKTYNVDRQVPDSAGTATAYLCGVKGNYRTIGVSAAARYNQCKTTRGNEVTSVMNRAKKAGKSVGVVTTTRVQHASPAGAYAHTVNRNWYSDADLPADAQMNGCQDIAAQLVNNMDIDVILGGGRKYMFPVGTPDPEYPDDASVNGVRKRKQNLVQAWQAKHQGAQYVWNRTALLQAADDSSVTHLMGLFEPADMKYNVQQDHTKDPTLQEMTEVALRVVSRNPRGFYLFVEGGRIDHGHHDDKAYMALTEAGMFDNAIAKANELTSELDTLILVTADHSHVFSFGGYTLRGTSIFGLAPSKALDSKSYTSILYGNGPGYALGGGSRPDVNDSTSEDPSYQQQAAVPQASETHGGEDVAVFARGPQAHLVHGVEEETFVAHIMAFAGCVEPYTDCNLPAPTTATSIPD
Assay: Chemiluminescent signal-to-noise levels with enhancers (Example XXIV)
Type: biochemical
Conditions: enhancer NONE; 5 min; alkaline phosphatase 2.83×10^-13 M
// values below are reported chemiluminescent signal-to-noise level

// solved cases for chemiluminescent signal-to-noise level follow
COC1(c2cccc(OP(=O)(O)O)c2)OOC12C1CC3CC2CC(Br)(C3)C1 (stereo not shown) = 77
COC1(c2cccc(OP(=O)(O)O)c2)OOC12C1CC3CC(C1)CC2C3 (stereo not shown) [AMPPD, reference compound] = 21
COC1(c2cccc(OP(=O)(O)O)c2)OOC12C1CC3CC2CC(O)(C3)C1 (single isomer, unassigned) = 55

Could you now look at the following compound, please?
# input Could you tell me which chemiluminescent signal-to-noise level is on file for COC1(c2cccc(OP(=O)(O)O)c2)OOC12C1CC3CC2CC(Cl)(C3)C1 (stereo not shown) ?
# output 82

---

Target: alkaline phosphatase (Bos taurus)
Assay: Chemiluminescent signal and signal:background with enhancer polymers (Example XVII)
Format: biochemical
Conditions: polymer S/TMQ(1:4); 5 min
# SIGNAL values compiled below

# input What value of SIGNAL has been recorded for this entry: COC1(c2cccc(OP(=O)(O)O)c2)OOC12C1CC3CC(C1)CC2C3 (stereo not shown) [AMPPD, reference compound]
# output 5931.5

# input Any idea what its SIGNAL is? The molecule is COC1(c2cccc(OP(=O)(O)O)c2)OOC12C1CC3CC2CC(O)(C3)C1 (single isomer, unassigned) [B-OH-AMPPD]
# output 4775.3

# input Record request: SIGNAL value, item COC1(c2cccc(OP(=O)(O)O)c2)OOC12C1CC3CC2CC(Cl)(C3)C1 (stereo not shown)
# output 5631.2

# input Look at this molecule and give its reported SIGNAL. COC1(c2cccc(OP(=O)(O)O)c2)OOC12C1CC3CC2CC(O)(C3)C1 (single isomer, unassigned) [A-OH-AMPPD]
# output 9294.6

---

This section presents molecules with their documented Alkaline phosphatase detection limit (at 2× background) values.
Target: alkaline phosphatase (Bos taurus, UniProt P19111)
Assay: Alkaline phosphatase detection limits, LabSystems Luminoskan (Example XXV)
Assay type: biochemical
Settings: SAPPHIRE II, 5 MINUTE INCUBATION
Description: The detection means for alkaline phosphatase with different chemiluminescent 1,2-dioxetane substrates were determined as follows: Duplicates of serial dilutions (1 to 3) of alkaline phosphates were incubated at room temperature with 0.4 mM dioxetane in 0.1 M diethanolamine, 1 mM MgCl2, pH 10.0, containing 1 mg/ml of either of the polymeric enhancers Enhancer 1 or Enhancer 2, in […]. […]
Write down the numeric answer in pM and omit the unit.

Example cases with answers are listed next.
COC1(c2cccc(OP(=O)(O)O)c2)OOC12C1CC3CC2CC(Br)(C3)C1 (stereo not shown) = 0.0004
COC1(c2cccc(OP(=O)(O)O)c2)OOC12C1CC3CC2CC(Cl)(C3)C1 (stereo not shown) = 0.0008
COC1(c2cccc(OP(=O)(O)O)c2)OOC12C1CC3CC(C1)CC2C3 (stereo not shown) [AMPPD, reference compound] = 0.0025

Shifting focus to the molecule that follows.
# input Item COC1(c2cccc(OP(=O)(O)O)c2)OOC12C1CC3CC2CC(O)(C3)C1 (single isomer, unassigned) has what recorded Alkaline phosphatase detection limit (at 2× background)?
# output 0.0014

---

Target: alkaline phosphatase (Bos taurus)
Assay: Chemiluminescent signal and signal:background with enhancer polymers (Example XVII)
Type: biochemical
Details: polymer S/TMQ(1:4); 5 min
Protocol: Four sets of three tubes each, each tube in each set containing 450 μl of a 0.4 mM aqueous solution of one of the four 1,2-dioxetanes being compared in 0.1M diethanolamine containing 1 mM magnesium chloride, 0.02% sodium azide and 0.1% of the enhancer polymer, pH 10.0 (substrate buffer) were prepared and the background signal from each tube measured using a Berthold LB 952T luminometer (Berthold Instruments; Wildbad, Federal Republic of Germany). […]
measure: S/N
Respond using a number only.

Below, 3 compounds whose answers are already recorded.
COC1(c2cccc(OP(=O)(O)O)c2)OOC12C1CC3CC2CC(Cl)(C3)C1 (stereo not shown) = 93.9
COC1(c2cccc(OP(=O)(O)O)c2)OOC12C1CC3CC2CC(O)(C3)C1 (single isomer, unassigned) [A-OH-AMPPD] = 114.5
COC1(c2cccc(OP(=O)(O)O)c2)OOC12C1CC3CC(C1)CC2C3 (stereo not shown) [AMPPD, reference compound] = 35.7

# input Can you share its S/N? I mean this compound: COC1(c2cccc(OP(=O)(O)O)c2)OOC12C1CC3CC2CC(O)(C3)C1 (single isomer, unassigned) [B-OH-AMPPD]
# output 35.6

---

Target: alkaline phosphatase (Bos taurus, UniProt P19111)
Test: Alkaline phosphatase detection limits, LabSystems Luminoskan (Example XXV)
Format: biochemical
Conditions: SAPPHIRE II, 20 MINUTE INCUBATION
Some compounds, each annotated with its measured Alkaline phosphatase detection limit (at 2× background).
Reply with just the number (in pM).

# input // returns reported Alkaline phosphatase detection limit (at 2× background) for input COC1(c2cccc(OP(=O)(O)O)c2)OOC12C1CC3CC2CC(Br)(C3)C1 (stereo not shown)
# output 0.00039

# input Recorded Alkaline phosphatase detection limit (at 2× background) for COC1(c2cccc(OP(=O)(O)O)c2)OOC12C1CC3CC2CC(Cl)(C3)C1 (stereo not shown) , please?
# output 0.00043

# input Which measured Alkaline phosphatase detection limit (at 2× background) value corresponds to COC1(c2cccc(OP(=O)(O)O)c2)OOC12C1CC3CC(C1)CC2C3 (stereo not shown) [AMPPD, reference compound] ?
# output 0.0011

# input Need Alkaline phosphatase detection limit (at 2× background) of COC1(c2cccc(OP(=O)(O)O)c2)OOC12C1CC3CC2CC(O)(C3)C1 (single isomer, unassigned) , thanks.
# output 0.00031

---

Recorded S/N by entry
Target: alkaline phosphatase (Bos taurus)
Test: Chemiluminescent signal and signal:background with enhancer polymers (Example XVII)
Type: biochemical
Settings: polymer S/TMQ(1:2); 5 min
Experimental: Four sets of three tubes each, each tube in each set containing 450 μl of a 0.4 mM aqueous solution of one of the four 1,2-dioxetanes being compared in 0.1M diethanolamine containing 1 mM magnesium chloride, 0.02% sodium azide and 0.1% of the enhancer polymer, pH 10.0 (substrate buffer) were prepared and the background signal from each tube measured using a Berthold LB 952T luminometer (Berthold Instruments; Wildbad, Federal Republic of Germany). […]

# input Reported S/N, molecule COC1(c2cccc(OP(=O)(O)O)c2)OOC12C1CC3CC2CC(Cl)(C3)C1 (stereo not shown) : ____
# output 46.7

---

Biological target: UniProt:P19111
Test: Chemiluminescent signal and signal:background with enhancer polymers (Example XVII)
Type: biochemical
Conditions: polymer BAEDM; 20 min
measure: SIGNAL
Lab note: write the figure by itself, no unit.

// solved cases for SIGNAL follow
COC1(c2cccc(OP(=O)(O)O)c2)OOC12C1CC3CC(C1)CC2C3 (stereo not shown) [AMPPD, reference compound] = 26529.1
COC1(c2cccc(OP(=O)(O)O)c2)OOC12C1CC3CC2CC(O)(C3)C1 (single isomer, unassigned) [B-OH-AMPPD] = 5538.2

# input For UniProt:P19111, provide SIGNAL of COC1(c2cccc(OP(=O)(O)O)c2)OOC12C1CC3CC2CC(Cl)(C3)C1 (stereo not shown) please.
# output 17185.4

# input Tell me reported SIGNAL for COC1(c2cccc(OP(=O)(O)O)c2)OOC12C1CC3CC2CC(O)(C3)C1 (single isomer, unassigned) [A-OH-AMPPD] , tested with UniProt:P19111.
# output 7433.5

---

Target: UniProtKB P19111
Assay: Chemiluminescent signal and signal:background with enhancer polymers (Example XVII)
Type: biochemical
Conditions: polymer BAEDM; 5 min
SIGNAL for assorted molecules
Could you respond with only the numeric value?

Reference set (3 entries):
COC1(c2cccc(OP(=O)(O)O)c2)OOC12C1CC3CC2CC(O)(C3)C1 (single isomer, unassigned) [A-OH-AMPPD] = 5887.3
COC1(c2cccc(OP(=O)(O)O)c2)OOC12C1CC3CC2CC(Cl)(C3)C1 (stereo not shown) = 9086.9
COC1(c2cccc(OP(=O)(O)O)c2)OOC12C1CC3CC(C1)CC2C3 (stereo not shown) [AMPPD, reference compound] = 9275.3

Then this molecule:
# input What does the data say about its SIGNAL? Entry: COC1(c2cccc(OP(=O)(O)O)c2)OOC12C1CC3CC2CC(O)(C3)C1 (single isomer, unassigned) [B-OH-AMPPD]
# output 4101.3

---

Target: alkaline phosphatase (Bos taurus, UniProt P19111)
Test: Chemiluminescent signal and signal:background with enhancer polymers (Example XVII)
Type: biochemical
Details: polymer NONE; 20 min
Item-by-item account of S/N
Give only the figure.

COC1(c2cccc(OP(=O)(O)O)c2)OOC12C1CC3CC2CC(O)(C3)C1 (single isomer, unassigned) [B-OH-AMPPD] = 29.8
COC1(c2cccc(OP(=O)(O)O)c2)OOC12C1CC3CC(C1)CC2C3 (stereo not shown) [AMPPD, reference compound] = 34.4
COC1(c2cccc(OP(=O)(O)O)c2)OOC12C1CC3CC2CC(O)(C3)C1 (single isomer, unassigned) [A-OH-AMPPD] = 36.3

Please find the next compound below.
# input Find S/N (alkaline phosphatase (Bos taurus, UniProt P19111)) for the entry COC1(c2cccc(OP(=O)(O)O)c2)OOC12C1CC3CC2CC(Cl)(C3)C1 (stereo not shown)
# output 52.3
